Target: GPR119 receptor (Mesocricetus auratus, UniProt A0A1U8CD06)
Construct: which endogenously express the GPR119 receptor; host or cells: HIT-T15 hamster pancreatic islet cells
Sequence (A0A1U8CD06 1-334): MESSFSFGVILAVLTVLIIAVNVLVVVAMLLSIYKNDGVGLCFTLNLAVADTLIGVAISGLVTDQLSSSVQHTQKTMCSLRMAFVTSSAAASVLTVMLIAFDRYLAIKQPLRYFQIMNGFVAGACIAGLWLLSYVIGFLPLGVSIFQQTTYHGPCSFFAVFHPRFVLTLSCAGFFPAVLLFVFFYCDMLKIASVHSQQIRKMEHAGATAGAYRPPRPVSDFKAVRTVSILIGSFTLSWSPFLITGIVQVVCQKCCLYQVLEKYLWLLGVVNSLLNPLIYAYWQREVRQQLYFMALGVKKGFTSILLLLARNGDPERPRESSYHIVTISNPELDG
Assay: cAMP assay in HIT-T15 hamster pancreatic islet cells (functional agonist activity)
Assay type: cell-based
Conditions: HIT-T15 cells endogenously expressing GPR119; 30 min at 25° C.; intracellular cAMP
Protocol: The functional agonist activities of compounds of the invention were characterized using a cAMP assay in HIT-T15 hamster pancreatic islet cells (American Type Culture Collection, Manassas, Va., USA) which endogenously express the GPR119 receptor. The cells were cultured in Kaighn's modification of Ham's F12 medium (Invitrogen Corporation, Carlsbad, Calif., USA) containing 10% horse serum, 2.5% FBS, and 1% Pen/Strep and grown in 225 cm^2 tissue culture flasks until they reached 75-85% confluence. […]
parameter.measured: EC50

Before answering, review these 3 worked examples.
* CC(C)(C)OC(=O)N1CCC(n2ncc3c(Oc4ccc(S(N)(=O)=O)cc4)ncnc32)CC1 | 0.28 µM
* CS(=O)(=O)c1ccc(Oc2ncnc3c2cnn3C2CCN(C(=O)CC3CCCCC3)CC2)cc1 | 0.58 µM
* CS(=O)(=O)c1ccc(Oc2ncnc3c2cnn3C2CCN(C(=O)c3cc(Cl)cc(Cl)c3)CC2)cc1 | 2.1 µM

input: Please report EC50 with GPR119 receptor (Mesocricetus auratus, UniProt A0A1U8CD06) for item "CC(C)OC(=O)N1CCC(n2ncc3c(Oc4ccc(=O)n(C)n4)ncnc32)CC1" .
output: 3.5 µM

input: Lab note: GPR119 receptor (Mesocricetus auratus, UniProt A0A1U8CD06) assay, enter EC50 for "Cc1ncccc1Oc1ncnc2c1cnn2C1CCN(C(=O)OC2CCCC2)CC1" here
output: 0.26 µM
